# target-desc: Platelet-derived growth factor receptor (Homo sapiens) (UniProt P09619+P16234)
# measurement-description: Inhibitory activity on PDGF-induced ERK phosphorylation in NIH3T3 cells at 20 uM
# Assay type: cell-based
Activity calls are given as the source filed them. No cut-off for these calls is given here.

substance-smiles | Activity
O=C1c2cccc(O)c2C(=O)c2c(O)cc(CO)cc21 | inactive
Cc1cc(O)c2c(c1)C(=O)c1cccc(O)c1C2=O | inactive
COc1cc(O)c2c(c1)C(=O)c1cc(C)cc(O)c1C2=O | inactive
Cc1cc(O)c2c(c1)C(=O)c1cc(O)cc(O)c1C2=O | inactive
O=C(O)c1cc(O)c2c(c1)C(=O)c1cccc(O)c1C2=O | inactive
